TARGET OR TEST SYSTEM: recombinant mouse GALK1 (Mus musculus)
EXPERIMENT NOTES: mGALK1 biochemical activity assay (Kinase-Glo Plus, ATP depletion)
RUN PARAMETERS: recombinant mouse GALK1, Kinase-Glo Plus ATP depletion; read-out: mGALK
molecules and their reported IC50

# example entries with known answers
MOLECULE	IC50
CC1=C(C(=O)Nc2cc(C(=O)O)ccn2)[C@@H](c2ccccc2Cl)N=C(Nc2nc3ccc(F)cc3o2)N1	13.7 µM
CC1=C(C(=O)Nc2nnc(C(F)(F)F)s2)C(c2ccccc2Cl)N=C(Nc2nc3ccccc3o2)N1 (stereo not shown)	21.7 µM
CC1=C(C(=O)Nc2ccc(CN)cc2)C(c2ccccc2Cl)N=C(Nc2nc3ccccc3o2)N1 (stereo not shown)	4.32 µM
CC1=C(C(=O)Nc2cc(C(=O)O)ccn2)[C@@H](c2ccc(C)cc2Cl)N=C(Nc2nc3cccc(N)c3o2)N1	21.7 µM
CC1=C(C(=O)Nc2cc(C(=O)O)ccn2)[C@H](c2ccccc2Cl)N=C(Nc2nc3ccccc3o2)N1	3.43 µM
CC1=C(C(=O)Nc2cc(C(=O)O)ccn2)C(c2ccc(C)cc2Cl)N=C(Nc2nc3ccc(F)cc3o2)N1 (racemic)	3.06 µM

Next up:
Query for recombinant mouse GALK1 (Mus musculus): what IC50 does the record show for CC1=C(C(=O)Nc2ccc(CO)nc2)C(c2ccccc2Cl)N=C(Nc2nc3ccccc3o2)N1 (stereo not shown) ?
7.69 µM

---

TARGET OR TEST SYSTEM: recombinant mouse GALK1 (Mus musculus, UniProt Q9R0N0)
Sequence (Q9R0N0 whole entry): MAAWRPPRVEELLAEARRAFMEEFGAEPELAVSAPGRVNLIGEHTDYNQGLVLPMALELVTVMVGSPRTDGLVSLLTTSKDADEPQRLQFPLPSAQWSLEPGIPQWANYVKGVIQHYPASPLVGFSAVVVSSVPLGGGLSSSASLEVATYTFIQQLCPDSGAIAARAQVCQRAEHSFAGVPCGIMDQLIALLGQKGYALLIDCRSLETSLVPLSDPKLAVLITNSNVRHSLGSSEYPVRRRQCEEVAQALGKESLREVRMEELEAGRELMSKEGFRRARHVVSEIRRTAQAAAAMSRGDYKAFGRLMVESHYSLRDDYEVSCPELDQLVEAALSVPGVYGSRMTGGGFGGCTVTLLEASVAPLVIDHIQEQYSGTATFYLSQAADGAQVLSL
EXPERIMENT NOTES: mGALK1 biochemical activity assay (Kinase-Glo Plus, ATP depletion)
RUN PARAMETERS: Tables 2-15; 35 μM ATP, 100 μM galactose, 1 h; bracketed figure after some values is undefined and not reported; read-out: mGALK IC50
Exam item: assign YES to entries whose IC50 is below 10 µM and NO to entries at or above 10 µM. Note that a value of exactly 10 µM receives NO.

COMPOUND	TARGET OR TEST SYSTEM	CLASS NAME
COc1ccc2nc(NC3=NC(c4ccccc4Cl)C(C(=O)Nc4cc(C(=O)O)ccn4)=C(C)N3)oc2c1 (centres unmarked)	recombinant mouse GALK1 (Mus musculus, UniProt Q9R0N0)	NO
COC(=O)c1ccccc1CNC(=O)C1=C(C)NC(Nc2nc3ccccc3o2)=NC1c1ccccc1Cl (centres unmarked)	recombinant mouse GALK1 (Mus musculus, UniProt Q9R0N0)	YES
CC1=C(C(=O)Nc2cc(CO)ccn2)C(c2ccccc2Cl)N=C(Nc2nc3ccccc3o2)N1 (centres unmarked)	recombinant mouse GALK1 (Mus musculus, UniProt Q9R0N0)	YES

hey, is IC50 for CC1=C(C(=O)Nc2ccc(N(C)C)cc2)C(c2ccccc2Cl)N=C(Nc2nc3ccccc3o2)N1 (centres unmarked) lower than 10 µM or not?
NO

Next up: "CC1=C(C(=O)Nc2cc(C(=O)O)ccn2)[C@@H](c2ccc(C)cc2Cl)N=C(Nc2nc3cccc(N)c3o2)N1"
NO

---

TARGET OR TEST SYSTEM: hGALK1m (Homo sapiens, UniProt P51570, E253A/K252A)
Construct: made in house; host or cells: E. coli HMS174
Sequence (P51570 whole entry K252A/E253A): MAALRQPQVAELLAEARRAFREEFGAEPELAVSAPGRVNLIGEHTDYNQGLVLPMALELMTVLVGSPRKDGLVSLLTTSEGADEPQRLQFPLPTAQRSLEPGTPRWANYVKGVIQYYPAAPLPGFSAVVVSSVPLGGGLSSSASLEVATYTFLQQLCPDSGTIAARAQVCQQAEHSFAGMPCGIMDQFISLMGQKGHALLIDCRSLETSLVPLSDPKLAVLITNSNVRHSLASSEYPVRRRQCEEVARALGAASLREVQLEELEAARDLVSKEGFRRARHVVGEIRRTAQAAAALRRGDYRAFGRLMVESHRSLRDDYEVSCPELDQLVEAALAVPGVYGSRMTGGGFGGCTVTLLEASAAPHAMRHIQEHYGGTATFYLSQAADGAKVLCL
EXPERIMENT NOTES: in vitro hGALK1 activity assay of the structure-based optimisation (Example 12, Tables 17-20)
Assay type: biochemical
RUN PARAMETERS: Table 17, amide group optimization; no unit in table
A collection of compounds and their measured IC50
Report as a plain number; the unit µM is understood.

Past entries and their recorded results:
COMPOUND	TARGET OR TEST SYSTEM	OUTCOME MEASURE	ASSAY VALUE
CC1=C(C(=O)NCc2cncn2C)C(c2ccccc2Cl)N=C(Nc2nc3ccccc3o2)N1 (centres unmarked)	hGALK1m (Homo sapiens, UniProt P51570, E253A/K252A)	IC50	1.4
CC1=C(C(=O)Nc2nnc(C)s2)C(c2ccccc2Cl)N=C(Nc2nc3ccccc3o2)N1 (centres unmarked)	hGALK1m (Homo sapiens, UniProt P51570, E253A/K252A)	IC50	3.9
CC1=C(C(=O)NCc2nccn2C)C(c2ccccc2Cl)N=C(Nc2nc3ccccc3o2)N1 (centres unmarked)	hGALK1m (Homo sapiens, UniProt P51570, E253A/K252A)	IC50	11

Requested field: IC50. Item: CC1=C(C(=O)NCc2cncs2)C(c2ccccc2Cl)N=C(Nc2nc3ccccc3o2)N1 (centres unmarked)
1.2

Input CC1=C(C(=O)Nc2ncc(C(=O)O)s2)C(c2ccccc2Cl)N=C(Nc2nc3ccccc3o2)N1 (centres unmarked)
1.7

Measured values drawn from patent US20230158025A1 for this set.
